- Test system: isolated mouse liver mitochondria
- Assay protocol: Calcium retention capacity (CRC) assay in isolated liver mitochondria
- Assay type: biochemical
- Condition notes: isolated mouse liver mitochondria
pEC50: −log10 of the molar value.
Here the recorded pEC50 is given for each entry.
Measurement label: pEC50

In [3]: df
Out[3]:
                                   molecule  measurement
0  COc1ccc(Br)cc1[C@H](NC(=O)NCc1ccc(N)cc1)C(=O)N1CCC[C@@H]1c1cccc2ccsc12 [Compound C110SR]         6.85
1  COc1ccc(Br)cc1[C@H](NC(=O)NCc1ccc2c(c1)CCCN2)C(=O)N1CCC[C@@H]1c1cccc2ccsc12 [Compound C105SR]         7.30
2  COc1ccc(Br)cc1C(NC(=O)NCc1ccc2c(c1)CCCN2)C(=O)N1CCCC1c1cccc2ccsc12 (stereo not drawn) [Compound C105]         5.63

----------
The compounds listed here are annotated with their EC50.
- Test system: isolated mouse liver mitochondria
- Assay protocol: Calcium retention capacity (CRC) assay in isolated liver mitochondria
- Type: biochemical
- Condition notes: isolated mouse liver mitochondria

Compound	EC50, µM
CSc1ccccc1C1CCCN1C(=O)C(NC(=O)NCc1ccc(N)cc1)c1ccccc1 (stereo not shown) [Compound C31]	9.09
CSc1ccccc1C1CCCN1C(=O)C(NC(=O)NCc1cccc2c1CCN2)c1ccccc1 (stereo not shown) [Compound C144]	11.8
C/C=C/C[C@@H](C)[C@@H](O)[C@H]1C(=O)N[C@@H](CC)C(=O)N(C)[C@H](C)C(=O)N(CC)[C@@H](C(C)C)C(=O)N[C@@H](C(C)C)C(=O)N(C)[C@@H](CC(C)C)C(=O)N[C@@H](C)C(=O)N[C@H](C)C(=O)N(C)[C@@H](CC(C)C)C(=O)N(C)[C@@H](CC(C)C)C(=O)N(C)[C@@H](C(C)C)C(=O)N1C [ALV, alisporivir, reference compound]	0.08
COc1ccc(Br)cc1C(NC(=O)NCc1ccc(N)cc1)C(=O)N1CCCC1c1cccc2ccsc12 (stereo not shown) [Compound C110]	2.83

----------
- Tested on: CypD (Homo sapiens)
- Sequence (P30405 30-207): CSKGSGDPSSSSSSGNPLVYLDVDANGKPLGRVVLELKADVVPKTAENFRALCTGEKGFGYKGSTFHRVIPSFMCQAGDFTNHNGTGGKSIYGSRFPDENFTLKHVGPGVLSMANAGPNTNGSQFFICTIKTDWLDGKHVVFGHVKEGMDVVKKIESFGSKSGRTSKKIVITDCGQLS
- Assay protocol: CypD PPIase activity, chymotrypsin-coupled assay
- Type: biochemical
- Condition notes: Table 1
Note to self: IC50 under 300 nM means true (1), ties and anything higher get false (0).

Compound	Assigned class
CSc1ccccc1C1CCCN1C(=O)C(NC(=O)NCc1cccc2[nH]ccc12)c1ccccc1 (stereo not drawn) [Compound C172]	true (1)
COc1cc(OC)c(C(NC(=O)NCc2ccc(N)cc2)C(=O)N2CCCC2c2cccc3ccsc23)cc1Br (stereo not drawn) [Compound C112]	false (0)
CSc1ccccc1C1CCCN1C(=O)C(NC(=O)NCc1cccc2c1CCN2)c1ccccc1 (stereo not drawn) [Compound C144]	false (0)
CSc1ccccc1C1CCCN1C(=O)C(NC(=O)NCc1cccc2[nH]ncc12)c1ccccc1 (stereo not drawn) [Compound C178]	false (0)
CSc1ccccc1C1CCCN1C(=O)C(NC(=O)NCc1ccc(N)cc1)C1CCCCC1 (stereo not drawn) [Compound C71]	false (0)
C/C=C/C[C@@H](C)[C@@H](O)[C@H]1C(=O)N[C@@H](CC)C(=O)N(C)[C@H](C)C(=O)N(CC)[C@@H](C(C)C)C(=O)N[C@@H](C(C)C)C(=O)N(C)[C@@H](CC(C)C)C(=O)N[C@@H](C)C(=O)N[C@H](C)C(=O)N(C)[C@@H](CC(C)C)C(=O)N(C)[C@@H](CC(C)C)C(=O)N(C)[C@@H](C(C)C)C(=O)N1C [ALV, alisporivir, reference compound]	true (1)
CSc1ccccc1C1CCCN1C(=O)C(NC(=O)NCc1ccc(N)cc1)c1ccccc1 (stereo not drawn) [Compound C31]	true (1)
CSc1ccccc1C1CCCN1C(=O)C(NC(=O)NC(C)c1ccc(N)c(F)c1)c1ccccc1 (stereo not drawn) [Compound C101]	false (0)
CSc1ccccc1C1CCCN1C(=O)C(NC(=O)NCc1cccc2ccsc12)c1ccccc1 (stereo not drawn) [Compound C142]	false (0)
COc1ccc(OC)c(C(NC(=O)NCc2ccc(N)cc2)C(=O)N2CCCC2c2cccc3ccsc23)c1 (stereo not drawn) [Compound C108]	false (0)
COc1ccc(Br)cc1C(NC(=O)NC(C)c1ccc(N)c(F)c1)C(=O)N1CCCC1c1ccccc1SC (stereo not drawn) [Compound C123]	false (0)
COc1ccc(OC)c(C(NC(=O)NCc2cccc3[nH]ccc23)C(=O)N2CCCC2c2ccccc2SC)c1 (stereo not drawn) [Compound C170]	false (0)
COc1ccc(Br)cc1C(NC(=O)NCc1ccc(N)cc1)C(=O)N1CCCC1c1cccc2ccsc12 (stereo not drawn) [Compound C110]	true (1)
CSc1ccccc1C1CCCN1C(=O)C(NC(=O)NCc1cccc2c1OCCO2)c1ccccc1 (stereo not drawn) [Compound C129]	true (1)
CSc1ccccc1C1CCCN1C(=O)C(NC(=O)NCC1CC2(CNC2)C1)c1ccccc1 (stereo not drawn) [Compound C119]	true (1)
CCNC(=O)N1CCCc2c(CNC(=O)NC(C(=O)N3CCCC3c3ccccc3SC)c3ccccc3)cccc21 (stereo not drawn) [Compound C177]	false (0)
COc1ccc(OC)c(C(NC(=O)NCc2cccc3[nH]ncc23)C(=O)N2CCCC2c2ccccc2SC)c1 (stereo not drawn) [Compound C171]	false (0)
CSc1ccccc1C1CCCN1C(=O)C(NC(=O)NN1Cc2ccc(N)cc2C1)c1ccccc1 (stereo not drawn) [Compound C185]	false (0)

----------
List of pIC50 values.
- Tested on: CypD (Homo sapiens)
- Assay protocol: CypD PPIase activity, chymotrypsin-coupled assay
- Assay type: biochemical
- Condition notes: Table 2, enzyme assay
pIC50: −log10 of the molar value.
Measurement label: pIC50

>>> df
                                   compound  measurement
0  COc1ccc(Br)cc1[C@H](NC(=O)NCc1ccc2c(c1)CCCN2)C(=O)N1CCC[C@@H]1c1cccc2ccsc12 [Compound C105SR]         8.30
1  COc1ccc(Br)cc1[C@H](NC(=O)NCc1ccc(N)cc1)C(=O)N1CCC[C@@H]1c1cccc2ccsc12 [Compound C110SR]         8.10

----------
- Assay protocol: Plasmatic and hepatic concentration of C105SR in mice
- Assay type: in vivo
- Condition notes: plasma, sc, mouse, 50 mg/kg by subcutaneous osmotic pump, read-out: plasmatic concentration
Measurement label: concentration at 24 h

In [3]: df
Out[3]:
                                   molecule      measurement_label  measurement
0  COc1ccc(Br)cc1[C@H](NC(=O)NCc1ccc2c(c1)CCCN2)C(=O)N1CCC[C@@H]1c1cccc2ccsc12 [Compound C105SR]  concentration at 24 h       ~30 nM

// provenance: paper PMC10582583
